FYI, the data here is from ChEMBL document CHEMBL1681696.

- protocol-notes: Drug level in wild type CF1 mouse brain at 0.5 mg/kg after 4 hrs
- Type: ADME, organism-based
- Set-up: dose 0.5 mg/kg
- condition-parameters: read-out: Drug uptake
attribute-measured: concentration at 4 h (nM)
The response must be a number in nM with no trailing unit.

// query Could you share which concentration at 4 h value was measured for `Cn1nc(C2CCN(CCC(=O)N3CCC[C@H]3c3nc4cc(Cl)c(Cl)cc4[nH]3)CC2)cc1-c1ccncc1` ?
// result 4

----------
- protocol-notes: Plasma concentration in PrCP knockout mouse at 12 mg/kg sc by continuous infusion pump qd for 7 days
- Format: ADME, organism-based
- Design: dose 12 mg/kg, route subcutaneous
attribute-measured: concentration at 168 h (nM)
The response must be a number in nM with no trailing unit.

// query Could you share which concentration at 168 h value was measured for `Cn1nc(C2CCN(CCC(=O)N3CCC[C@H]3c3nc4cc(Cl)c(Cl)cc4[nH]3)CC2)cc1-c1ccncc1` ?
// result 290

----------
- protocol-notes: Drug level in wild type CF1 mouse plasma at 0.5 mg/kg after 0.5 hrs
- Assay type: ADME, organism-based
- Set-up: dose 0.5 mg/kg
- condition-parameters: read-out: Drug uptake
attribute-measured: concentration at 0.5 h

// query Could you share which concentration at 0.5 h value was measured for `Cn1nc(C2CCN(CCC(=O)N3CCC[C@H]3c3nc4cc(Cl)c(Cl)cc4[nH]3)CC2)cc1-c1ccncc1` ?
// result 54 nM

----------
- protocol-notes: Volume of distribution at steady state in mouse at 1 mg/kg, iv and 2 mg/kg, po
- Assay type: ADME, organism-based
- condition-parameters: in vivo, read-out: Vdss
attribute-measured: Vd (L/kg)
The response must be a number in L/kg with no trailing unit.

Examples with answers:
[
  {
    "compound": "CS(=O)(=O)c1ccc(-c2noc(C3CCN(CCC(=O)N4CCC[C@H]4c4nc5cc(Cl)c(Cl)cc5[nH]4)C(=O)C3)n2)cc1 (stereo not given in full)",
    "result-unit": "L/kg",
    "Vd": 3
  },
  {
    "compound": "CC(C)(CCCC(=O)N1CCC[C@H]1c1nc2cc(Cl)c(Cl)cc2[nH]1)N1CCC(c2nc(-c3ccccn3)no2)CC1",
    "result-unit": "L/kg",
    "Vd": 12
  },
  {
    "compound": "O=C(CCN1CCC(c2nc(-c3ccncc3)no2)CC1)N1CCC[C@H]1c1nc2cc(Cl)c(Cl)cc2[nH]1",
    "result-unit": "L/kg",
    "Vd": 5.7
  },
  {
    "compound": "Cn1nc(C2CCN(CCC(=O)N3CCC[C@H]3c3nc4cc(Cl)c(Cl)cc4[nH]3)CC2)cc1-c1ccncc1",
    "result-unit": "L/kg",
    "Vd": 9.4
  }
]

Then there is this compound:
// query Could you share which Vd value was measured for `CS(=O)(=O)c1ccc(-c2noc(C3CCN(CCC(=O)N4CCC[C@H]4c4nc5cc(Cl)c(Cl)cc5[nH]4)CC3)n2)cc1` ?
// result 7.7

----------
Measured pIC50, listed per entry for reference.
- assayed-system: Lysosomal Pro-X carboxypeptidase (Mus musculus, UniProt Q7TMR0)
- Sequence (Q7TMR0 whole entry): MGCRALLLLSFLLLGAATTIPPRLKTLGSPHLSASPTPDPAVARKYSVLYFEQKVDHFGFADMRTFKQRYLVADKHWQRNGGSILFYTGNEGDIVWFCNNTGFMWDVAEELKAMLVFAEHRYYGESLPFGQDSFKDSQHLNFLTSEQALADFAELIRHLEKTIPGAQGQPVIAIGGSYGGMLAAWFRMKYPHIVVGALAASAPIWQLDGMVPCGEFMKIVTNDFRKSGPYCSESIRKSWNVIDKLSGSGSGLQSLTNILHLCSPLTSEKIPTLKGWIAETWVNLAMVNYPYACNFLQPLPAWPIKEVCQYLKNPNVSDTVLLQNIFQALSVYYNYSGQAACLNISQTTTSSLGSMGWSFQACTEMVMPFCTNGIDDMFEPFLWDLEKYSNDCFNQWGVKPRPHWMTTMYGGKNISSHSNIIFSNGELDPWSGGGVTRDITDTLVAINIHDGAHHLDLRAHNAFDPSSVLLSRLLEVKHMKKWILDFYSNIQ
- protocol-notes: Inhibition of PrCP in mouse plasma assessed as angiotensin 3 cleavage
- Type: cell-free
pIC50 here: minus log base 10 of the concentration, concentration in moles per litre.

// query Could you share which pIC50 value was measured for `O=C(CCN1CCC(n2ncnn2)CC1)N1CCC[C@H]1c1nc2cc(Cl)c(Cl)cc2[nH]1` ?
// result 5.54
